This listing pairs compounds with measured hERG current change (%, negative = inhibition) at 10uM.
# subject-of-test: human ether-à-go-go-related gene (hERG) potassium channel (human)
# procedure-text: primary screen, population patch clamp on CHO cells stably expressing hERG; higher = less effect of the substance;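 also: peak tail current of the secondary pulse compared with the same well before compound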
Among all 310,000 compounds or so, about 14,000 (4.5%) showed an effect of 50% or more. Effects have a minus sign here. Shown is part of a subset that was picked to be rich in strong results.
# unit: % | format: bare number

Problem: Would you mind telling me what hERG current change (%, negative = inhibition) at 10uM value was observed for COc1cccc(OCC(O)CN2CCN(C(c3ccccc3)c3ccccc3)CC2)c1.Cl (centres unmarked) ?
Solution: -43.6

Problem: Form field: reported hERG current change (%, negative = inhibition) at 10uM of COc1ccccc1C(=O)N1CC(=O)Nc2ccc(C)cc2C1c1ccc(F)cc1 (centres unmarked)
Solution: -38.6

Problem: Query: hERG current change (%, negative = inhibition) at 10uM; subject: O=C1CN(C(=O)c2cc3ccccc3oc2=O)C(c2ccc(F)cc2)c2cc(Br)ccc2N1 (centres unmarked)
Solution: -68.6

Problem: Value lookup for hERG current change (%, negative = inhibition) at 10uM; key = Cc1ccccc1C(=O)N1CC(=O)Nc2ccc(F)cc2C1c1ccc(F)cc1 (centres unmarked)
Solution: -16.1

Here is the next item to consider.
Problem: Fill blank: measured hERG current change (%, negative = inhibition) at 10uM of the compound OC(COc1ccccc1)CN1CCN(C(c2ccccc2)c2ccccc2)CC1 (centres unmarked) is ____.
Solution: -69.6

###

# subject-of-test: human ether-à-go-go-related gene (hERG) potassium channel (human, UniProt Q12809)
# Sequence (Q12809 whole entry, looked up): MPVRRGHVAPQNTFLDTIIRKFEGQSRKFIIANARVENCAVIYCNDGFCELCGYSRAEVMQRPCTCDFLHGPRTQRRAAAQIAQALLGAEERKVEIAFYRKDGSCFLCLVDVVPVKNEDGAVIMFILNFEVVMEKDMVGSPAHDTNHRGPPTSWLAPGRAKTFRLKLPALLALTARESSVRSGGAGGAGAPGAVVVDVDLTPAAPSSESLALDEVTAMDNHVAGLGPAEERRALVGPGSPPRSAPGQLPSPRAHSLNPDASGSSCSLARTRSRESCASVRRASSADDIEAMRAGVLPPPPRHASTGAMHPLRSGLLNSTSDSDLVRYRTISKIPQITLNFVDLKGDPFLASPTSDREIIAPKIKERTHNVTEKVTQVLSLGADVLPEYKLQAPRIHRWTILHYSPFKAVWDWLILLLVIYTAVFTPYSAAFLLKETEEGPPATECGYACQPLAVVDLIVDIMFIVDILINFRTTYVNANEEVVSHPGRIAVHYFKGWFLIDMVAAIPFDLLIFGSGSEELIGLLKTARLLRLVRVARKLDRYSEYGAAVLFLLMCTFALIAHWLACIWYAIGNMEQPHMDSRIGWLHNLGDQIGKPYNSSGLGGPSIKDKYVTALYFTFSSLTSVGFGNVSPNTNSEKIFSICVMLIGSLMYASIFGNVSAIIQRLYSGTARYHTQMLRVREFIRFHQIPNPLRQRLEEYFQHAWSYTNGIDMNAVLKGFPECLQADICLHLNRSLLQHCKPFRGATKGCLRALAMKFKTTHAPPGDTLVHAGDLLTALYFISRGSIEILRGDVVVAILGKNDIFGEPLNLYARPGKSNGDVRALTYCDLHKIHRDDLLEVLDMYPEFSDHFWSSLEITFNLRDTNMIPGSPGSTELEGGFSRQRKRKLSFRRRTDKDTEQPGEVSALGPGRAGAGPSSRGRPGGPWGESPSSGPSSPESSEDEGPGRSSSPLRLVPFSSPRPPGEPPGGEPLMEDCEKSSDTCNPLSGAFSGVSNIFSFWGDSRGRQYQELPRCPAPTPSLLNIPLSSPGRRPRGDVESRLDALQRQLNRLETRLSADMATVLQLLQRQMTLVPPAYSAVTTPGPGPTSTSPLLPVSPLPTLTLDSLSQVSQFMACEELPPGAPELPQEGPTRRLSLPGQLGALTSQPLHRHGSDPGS
# procedure-text: primary screen, population patch clamp on CHO cells stably expressing hERG; higher = less effect of the substance
The campaign covered roughly 310,000 compounds. About 14,000 (4.5%) showed an effect of 50% or more. Effects have a minus sign here. Only a selection was taken, and strong results are over-represented in it overall.
Listed below: hERG current change (%, negative = inhibition) at 10uM values for each entry.

// known answers, use as guide
Problem: Fill in: hERG current change (%, negative = inhibition) at 10uM of COc1ccc(CC(=O)NCc2nnc(SCC(=O)Nc3nccs3)n2-c2ccccc2)cc1 is ___
Solution: 2.7%

Problem: # get_value(readout='hERG current change (%, negative = inhibition) at 10uM', item= Cc1sc2ncn(CC(=O)NCCCC(=O)N3CCN(Cc4ccc5c(c4)OCO5)CC3)c(=O)c2c1C )
Solution: -6.94%

Problem: Find the recorded hERG current change (%, negative = inhibition) at 10uM belonging to Cc1nc2ccccc2c(=O)n1-c1ccc(NS(=O)(=O)c2cc(F)ccc2F)cc1 and report it.
Solution: -11.7%

Problem: Need hERG current change (%, negative = inhibition) at 10uM of Cc1c(Br)c([N+](=O)[O-])nn1CC(=O)N1CCN(C23CC4CC(CC(C4)C2)C3)CC1 , thanks.
Solution: -38.1%

Problem: Dear colleague, I am looking for the recorded hERG current change (%, negative = inhibition) at 10uM of the following molecule: CC(C)N(C1=CC(=O)OC12CCCCC2)C(C)C
Solution: -0.582%

Further cases:
Problem: // returns reported hERG current change (%, negative = inhibition) at 10uM for input COc1ccc(-n2c(SCC(=O)Nc3nccs3)nnc2-c2ccccc2)cc1
Solution: -62.5%

Problem: What value of measured hERG current change (%, negative = inhibition) at 10uM is listed for CCOC(=O)C1(CCc2ccccc2)CCN(Cc2ccco2)CC1 ?
Solution: -76.5%

Problem: Look at this molecule and give its reported hERG current change (%, negative = inhibition) at 10uM. COc1ccc(-n2c(SCC(=O)Nc3nc(C)cs3)nnc2-c2ccoc2C)cc1
Solution: -81%

Problem: Find the recorded hERG current change (%, negative = inhibition) at 10uM belonging to COc1ccccc1N1CCN(C(=O)c2ccc(-c3ccccc3)cc2)CC1 and report it.
Solution: -5.25%

Problem: Need hERG current change (%, negative = inhibition) at 10uM, item C(=C\c1ccccn1)/c1ccccn1
Solution: 24.4%
